- protocolDescription: in vitro
- conditionInfo: human, hela cells, % viability
quantityKind: viability at 28.5 h, 10 µM (%)

>>> observed("COc1cc(C(=O)Nc2nnc(C3=COCCO3)o2)cc(OC)c1OC [CBK287410]")
97.6
>>> observed("Cn1cc(-c2nc(C3COCCN3Cc3ccc(F)cc3)no2)cn1 (stereo not shown) [CBK305391]")
97.7
>>> observed("COc1ccc(CN2CCCN(S(=O)(=O)c3ccc(-c4ccccc4)cc3)CC2)cc1F [CBK063108]")
111
>>> observed("CN(Cc1ccccc1)C1CCN(Cc2ccccn2)CC1 [CBK264622G]")
107

###

- protocolDescription: in vitro
- conditionInfo: human, hela cells, % viability
quantityKind: viability at 28.5 h, 10 µM (%)

>>> observed("COc1ccc2c(c1)CC(=O)NC21CCN(CCCCC(C)C)CC1 [CBK039839]")
95.3
>>> observed("O=C(C[n+]1cccc(C(=O)N/N=C/c2ccc(Br)cc2)c1)c1ccccc1 [CBK262063B]")
90.1
>>> observed("O=C(OCc1ccccc1)Oc1cncc(C(=O)O)c1 [CBK262053]")
91.1
>>> observed("N[C@H]1C[C@H]2C(=O)NC[C@@H](CCC(=O)NCc3cccs3)N2C1 [CBK289005]")
86.6
>>> observed("CC(C)CNc1nccnc1-c1ccc2c(c1)OCO2 [CBK088730]")
98.4
>>> observed("COc1cccc2cc(C(=O)N3CCN(CCO)CC3)c(=O)oc12 [CBK293932]")
89.5

###

- protocolDescription: in vitro
- conditionInfo: human, hela cells, % viability
quantityKind: viability at 28.5 h, 10 µM

>>> observed("CN(C)CCN(Cc1ccncc1)Cc1cc(F)cc(F)c1")
"94.9%"
>>> observed("Cc1nccn1CCC(=O)NC(c1ccncc1)c1cccs1 (centres unmarked)")
"90.6%"
>>> observed("O=S1(=O)C=C(c2ccc(Cl)cc2)S(=O)(=O)CC1")
"86.3%"
>>> observed("COc1ccc(Cn2cnc3[nH]ncc3c2=O)cc1")
"91.7%"
>>> observed("CC(=O)N(C)Cc1cccc(Nc2ncnc3c2cnn3CCO)c1")
"96.1%"
>>> observed("COc1ccc(F)c(CN(CC(C)(C)CN)C(=O)Nc2ccccc2C(C)(C)C)c1 [CBK002478C]")
"98.1%"
>>> observed("COc1cc(OC)nc(CN2CCOC3(CCN(C(=O)c4ccc5ccccc5c4)CC3)C2)n1 [CBK161121A]")
"91.6%"
>>> observed("CC(Cc1nc(-c2nccn2C)cs1)n1cc(Cl)cn1 (centres unmarked)")
"90.1%"
>>> observed("O=C1c2ccccc2CN1CCNS(=O)(=O)c1ccc2oc3ccccc3c2c1")
"98.9%"
>>> observed("Cn1cc(-c2nc(C(=O)NCc3ccnc(N4CCCC4)c3)cs2)cn1")
"92.9%"
>>> observed("N#Cc1ccc(NC(=O)CCn2cnnn2)cc1")
"91.4%"
>>> observed("CCN(Cc1cncn1C)C(CC1CCCCC1)c1ccccc1 (centres unmarked) [CBK066815T]")
"122%"
>>> observed("CCOC(=O)c1[nH]c(=O)[nH]c1CSc1ccccn1")
"94%"
>>> observed("O=C(NCc1cccnc1)c1ncoc1-c1cccs1")
"87.5%"

###

- protocolDescription: in vitro
- conditionInfo: human, hela cells, % viability
// reported viability at 28.5 h, 10 µM for each item listed
quantityKind: viability at 28.5 h, 10 µM (%)

>>> observed("CC(Cc1nc(-c2nccn2C(C)C)cs1)n1cc(Cl)cn1 (stereo not drawn)")
102
>>> observed("Fc1ccc(CNc2cncc(-c3cc4ccccc4o3)n2)cc1")
122
>>> observed("CN1CCC(N(C)C(=O)NC(c2ccccc2)c2ccccc2)C1 (stereo not drawn)")
96.4
>>> observed("COc1cc(/C=C(\\C#N)c2nn(-c3ccccc3)c(N)c2C#N)ccc1Oc1ccc(C(F)(F)F)cc1[N+](=O)[O-]")
92.7
>>> observed("CCCS(=O)(=O)NC[C@H]1C[C@@H]2CCN1C[C@@H]2c1cc(-c2cccs2)nn1C")
98.4
>>> observed("O=C(c1ccc(F)cc1)C1CCN(Cc2ccc(Cl)c(Cl)c2)CC1")
98.5
>>> observed("CC1(C)CC(NC(=O)c2cc(Cn3ccc4ccccc43)[nH]n2)CCO1 (stereo not drawn)")
87.7
>>> observed("COc1ccc(CCN2CCCN(c3nccc(OCc4ccc(Cl)c(Cl)c4)n3)CC2)cc1OC")
96.4
>>> observed("Cc1ccc(C(=O)O)cc1NC(=S)NC1CC1")
94.4
>>> observed("COc1cc2c(cc1CN1CCOCC1CC(=O)O)CCC2 (stereo not drawn)")
102
>>> observed("OC1CCN(c2nccc(C(F)(F)F)n2)CC1")
92.1
>>> observed("CC(C)(C)OC(=O)N1CCN(c2nccnc2OCCO)CC1")
119
>>> observed("CC(C)COC(=O)CCNc1n[nH]c(=O)[nH]c1=O")
86.2
>>> observed("CC(Cn1cccn1)NC(=O)N1CCN(Cc2ccc(F)cc2)CC1 (stereo not drawn)")
88.9
>>> observed("O=c1c([N+](=O)[O-])c(O)c2ccccc2n1Cc1ccccc1")
94.8
>>> observed("CCC1(CC)OC(N[C@@H](CO)c2ccccc2)=NC1=O")
92.8
>>> observed("CCc1cc(CNC(=O)C(c2ccc(F)cc2)N(C)C)on1 (stereo not drawn)")
88.4
>>> observed("Cc1cnn(C2CCN(C(=O)CC3OCCc4ccccc43)CC2)c1 (stereo not drawn)")
93.6

###

- protocolDescription: in vitro
- conditionInfo: human, hela cells, % viability
quantityKind: viability at 28.5 h, 10 µM

>>> observed("O=C(Nc1ccc(Br)cc1C(=O)O)c1ccc2c(c1)C(=O)N(Cc1cccnc1)C2=O")
"96.7%"
>>> observed("COC(=O)c1ccccc1NC(=O)CSc1nnc(-c2ccccc2)[nH]1")
"96.7%"
>>> observed("CN(CCCC(=O)Nc1nnc[nH]1)S(=O)(=O)c1ccccc1")
"82.4%"
>>> observed("COc1ccc(CN2CCCN(c3cc(OC4CCCCC4)ncn3)CC2)cc1 [CBK083278T]")
"107%"

###

- protocolDescription: in vitro
- conditionInfo: human, hela cells, % viability
quantityKind: viability at 28.5 h, 10 µM (%)

>>> observed("Cc1cc2ccnc(Cl)c2n1CC1(O)CC2CCC(C1)N2 (stereo not drawn)")
95
>>> observed("COc1ccc(Br)cc1C1CCCN1C(=O)Cc1cnccc1C (stereo not drawn)")
93.7
>>> observed("CS(=O)(=O)c1ccc(-c2ccc(N)c3ccccc23)cc1")
95.4

###

- protocolDescription: in vitro
- conditionInfo: human, hela cells, % viability
Quick reference for viability at 28.5 h, 10 µM among some molecules
quantityKind: viability at 28.5 h, 10 µM (%)

>>> observed("O=C(O)CCc1ccc(-c2cc(N3CCN(c4ccccn4)CC3)ncn2)cc1")
105
>>> observed("CCNc1nc(NCc2ccccc2)nc(Oc2ccc(=O)[nH]n2)n1")
104
>>> observed("O=C(Cn1c(-c2cccs2)cc2cccnc21)NCc1cccnc1")
105
>>> observed("COc1ccc(Cl)cc1N1CCN(CCN2CCCCC2)CC1")
100
>>> observed("O=C(NCc1ccco1)c1nccnc1-c1ccc(COc2ccc3c(c2)CCCC3)cc1")
89.8
>>> observed("COc1ccc(CC(=O)N2CCCCC2c2cc(-c3ccc(F)cc3)cc(C)n2)cc1OC (centres unmarked)")
98.8
>>> observed("O=C(c1nc(SCc2ccccc2)ncc1Cl)N1CCN(c2cccc(Cl)c2)CC1")
113
>>> observed("O=C(NCCn1nc(-c2cccs2)ccc1=O)c1cccs1")
77

###

- protocolDescription: in vitro
- conditionInfo: human, hela cells, % viability
Listed here are compounds together with their documented viability at 28.5 h, 10 µM.
quantityKind: viability at 28.5 h, 10 µM (%)

>>> observed("COC(=O)c1ccc(S(=O)(=O)n2ccn(-c3cccc(C(F)(F)F)c3)c2=O)n1C")
90.1
>>> observed("Cc1ccc(C(=O)N(C)C2CCCCC2)cc1C")
137
>>> observed("O=C(O)CCCC(=O)Nc1ccccc1Br")
102
>>> observed("Cc1nn(C)c(Oc2ccccc2OCc2ccccc2)c1[N+](=O)[O-]")
102

###

- protocolDescription: in vitro
- conditionInfo: human, hela cells, % viability
Reported viability at 28.5 h, 10 µM values for a set of compounds
quantityKind: viability at 28.5 h, 10 µM (%)

>>> observed("Cc1ccc(C(C)(C)C(=O)N2CC(C(=O)N3CCN(C)CC3)C2)cc1")
99.4
>>> observed("c1ccc2oc(-c3cncc(N4CCN(CCN5CCCC5)CC4)n3)cc2c1")
97.1
>>> observed("COc1ccccc1/C=C(/NC(=O)c1ccc(Cl)cc1Cl)C(=O)O")
98.4
>>> observed("COc1ccc(OCCN2CCC(C(=O)c3ccc(F)cc3)CC2)cc1")
104
>>> observed("NC1=Nc2nc3ccccc3n2C(c2ccc3c(c2)OCO3)N1 (centres unmarked)")
85.7

Attribution: paper PMC12040169
